# System: 786-0 renal
# PROTOCOL TEXT: NCI-60 one-dose screen, 48 h (100 = growth as untreated, 0 = no growth, -100 = all killed)
# COND: 10 µM unless noted
About 83,000 compounds went through this panel and 20% of them were active in at least one assay; those are over-represented in the sample as a whole.
Please note: criterion met applies when growth is 70% or greater, and criterion not met applies otherwise.

{"COMPOUND": "c1ccc(-c2nn(-c3ccccc3)[n+](-c3cccc4ccccc34)n2)cc1", "CATEGORY": "criterion not met"}
{"COMPOUND": "CCCCCN1C=C/C(=C\\C(=O)N(C)c2cccc3ccccc23)c2ccccc21", "CATEGORY": "criterion met"}
{"COMPOUND": "COc1ccc(Nn2c(SCC(=O)Nc3nc(-c4ccc(Cl)cc4)cs3)nc(C)c2C)cc1", "CATEGORY": "criterion not met"}
{"COMPOUND": "O=C1Nc2c(ccc(Cl)c2Cl)/C1=C/c1ccc(F)cc1", "CATEGORY": "criterion met"}
{"COMPOUND": "Cc1cn(-c2cc(C(=O)Nc3cccc(C#Cc4cccc5[nH]nc(N)c45)c3)cc(C(F)(F)F)c2)cn1", "CATEGORY": "criterion not met"}
{"COMPOUND": "CCOC(=O)c1c(C)nc2c(c1N)C(=O)C(=O)N2Cc1ccc(C(F)(F)F)cc1", "CATEGORY": "criterion not met"}
{"COMPOUND": "CCCOc1nc(SCCC)nc2c1cnn2-c1ccccc1", "CATEGORY": "criterion met"}
{"COMPOUND": "O=C1c2ccccc2-c2c1c1c(NCCCO)nc3ccccc3c1n2Cc1ccccc1", "CATEGORY": "criterion not met"}
{"COMPOUND": "CCOc1cc(CNc2ccc(N3CCOCC3)c(C(=O)O)c2)ccc1OC", "CATEGORY": "criterion met"}
{"COMPOUND": "COc1ccncc1C#Cc1cncc(C(=O)Nc2ccc(CN3CCN(C)CC3)c(C(F)(F)F)c2)c1", "CATEGORY": "criterion not met"}
{"COMPOUND": "CC(C)(C)CC(C)(C)Nc1c(-c2ccc3c(c2)OCO3)nc2cnccn12", "CATEGORY": "criterion not met"}
{"COMPOUND": "N/C(=N\\N=C\\c1cc2ccccc2s1)N/N=C/c1cc2ccccc2s1", "CATEGORY": "criterion not met"}
{"COMPOUND": "Fc1cc(C2=NNC(c3ccc[nH]3)C2)ccc1-n1ccc(C(F)(F)F)n1 (centres undefined)", "CATEGORY": "criterion met"}
{"COMPOUND": "COc1ccccc1-c1c(-c2ccc(Cl)cc2)c2cc3c(cc2[nH]c1=O)OCCO3", "CATEGORY": "criterion met"}
{"COMPOUND": "CCCCCCCCCCCCCCCC(=O)OC[C@@]1(O)C[C@@]23CC[C@@H]4C(C)(C)[C@H](O)CC[C@@]4(C)[C@@H]2CC[C@H]1C3", "CATEGORY": "criterion not met"}
{"COMPOUND": "O=S(=O)(NCCCNc1nccc(-c2c(-c3ccccc3)nc3occn23)n1)c1ccc(Cl)cc1", "CATEGORY": "criterion met"}
{"COMPOUND": "[2H]C1([2H])NC([2H])([2H])C([2H])([2H])N(c2ccc(Nc3ncc4cc(C(=O)N(C)C)n(C5CCCC5)c4n3)nc2)C1([2H])[2H]", "CATEGORY": "criterion not met"}
{"COMPOUND": "CNC(=O)c1c(NC(=O)c2ccc(C(C)C)cc2)sc2c(CN(C)C)c(O)ccc12", "CATEGORY": "criterion met"}

Data credit: PubChem BioAssay (NCI)
